Value source: PubChem BioAssay (NCATS)

# Protocol summary: Quantitative High-Throughput drug screen in 47 multiple myeloma cell lines against the NCATS MIPE library collection: VP6_DJ cell viability assay (AID 1919867); further: nearly all actives have a fitted effect of over 40% in size; further: potency means the concentration at half of the fitted maximal effect
# Condition label: ATP luminescence, 48 h; series mostly up to 45.8 µM
Inconclusive results are not listed. Activity calls are given as the source filed them. The call rests on the fitted dose curve; in most records, active means well fitted cell-killing curve with a large enough effect; inconclusive means small, poorly fitted or top-dose-only effect, or effect the other way; inactive means no such curve, though single readings can be large or run the other way.
Readout name: Potency

Some solved cases for reference:
- Compound: "COc1cc(O)c2c(c1)C1OC1C[C@H](O)[C@H](O)C(=O)C=CC[C@H](C)OC2=O (some centres undefined)"
  Potency: "1.66 µM (active)"
- Compound: "CC(=O)N[C@H]1[C@@H]([C@H](O)[C@H](O)CO)OC(C(=O)O)=C[C@@H]1N=C(N)N"
  Potency: "inactive"
- Compound: "O=C(NC1CC1)c1cccc(-c2ccc3c(NC(=O)C4CC4)n[nH]c3c2)c1"
  Potency: "9.35 µM (active)"
- Compound: "COc1cccc2c1C(=O)c1c(O)c3c(c(O)c1C2=O)C[C@@](O)(C(C)=O)C[C@H]3O[C@H]1C[C@H](N)[C@H](O)[C@H](C)O1"
  Potency: "0.0418 µM (active)"
- Compound: "O=C(Nc1nnc(-c2ccco2)o1)c1cc(-c2ccccc2)nc2ccccc12"
  Potency: "14.8 µM (active)"

Q: Any idea what Potency was measured for CCc1cc(C(C)=NOCc2ccc(C3CCCCC3)c(C(F)(F)F)c2)ccc1CN1CC(C(=O)O)C1 ?
A: 11.8 µM (active)

Q: Likewise for CC[C@@]1([C@@H]2O[C@@H]([C@H]3O[C@@](O)(CO)[C@H](C)C[C@H]3C)C[C@H]2C)CC[C@H]([C@]2(C)CC[C@]3(C[C@H](O)[C@@H](C)[C@@H]([C@@H](C)[C@@H](OC)[C@H](C)C(=O)O)O3)O2)O1 ?
A: 0.512 µM (active)

Q: Likewise for CN[C@H](CC(C)C)C(=O)N[C@H]1C(=O)N[C@@H](CC(N)=O)C(=O)N[C@@H]2C(=O)N[C@H]3C(=O)N[C@H](C(=O)N[C@H](C(=O)O)c4cc(O)cc(O)c4-c4cc3ccc4O)[C@H](O)c3ccc(c(Cl)c3)Oc3cc2cc(c3O[C@@H]2O[C@H](CO)[C@@H](O)[C@H](O)[C@@H]2O[C@H]2C[C@](C)(N)[C@H](O)[C@H](C)O2)Oc2ccc(cc2Cl)[C@H]1O ?
A: 13.2 µM (active)

Q: Likewise for C[N+](C)([O-])CCNc1ccc(NCC[N+](C)(C)[O-])c2c1C(=O)c1c(O)ccc(O)c1C2=O ?
A: inactive

Q: Likewise for COc1cccc2c1C(=O)c1c(O)c3c(c(O)c1C2=O)C[C@@](O)(C(=O)CO)C[C@H]3O[C@H]1C[C@H](N)[C@H](O)[C@H](C)O1 ?
A: 0.264 µM (active)

====

# Protocol summary: Quantitative High-Throughput drug screen in 47 multiple myeloma cell lines against the NCATS MIPE library collection: LP1_DSMZ cell viability assay (AID 1918982); further: nearly all actives have a fitted effect of over 35% in size
# Condition label: LP1 myeloma viability, CellTiter-Glo ATP luminescence, 48 h; series mostly up to 45.8 µM
Inconclusive results are not listed. Calls of active or inactive are those of the source. Calls follow the shape of the dose curve; as a rule, active = well fitted cell-killing curve with a large enough effect; inconclusive = small, poorly fitted or top-dose-only effect, or effect the other way; inactive = no such curve, though single readings can be large or run the other way. Positions of bridges follow the written chain, without caps; N, C: chain ends. Non-standard residues stand in square brackets, D forms with d. Residues, ends and D or L forms follow the SMILES beside them. ξ: configuration not given here. *: point of attachment. Octanoyl(6-Me) = CCC(C)CCCCC(=O)*; ξThr(3R) = C[C@@H](O)C(N)C(=O)O; dDab = NCC[C@@H](N)C(=O)O; Dab = NCC[C@H](N)C(=O)O
Just give me one of these, please: TRUE (active), FALSE (inactive)

Worked set:
- Compound: "c1ccc(CNc2nc(NCc3ccccc3)c3ccccc3n2)cc1"
  Group label: "TRUE"
- Compound: "CCC(C)CCCCC(=O)N[C@@H](CCN)C(=O)NC(C(=O)N[C@H](CCN)C(=O)N[C@@H]1CCNC(=O)C([C@@H](C)O)NC(=O)[C@@H](CCN)NC(=O)[C@@H](CCN)NC(=O)[C@@H](CC(C)C)NC(=O)[C@H](Cc2ccccc2)NC(=O)[C@H](CCN)NC1=O)[C@@H](C)O (stereo partly drawn) ({Octanoyl(6-Me)}-[Dab][ξThr(3R)][dDab][dDab][Dab]F[dL][dDab][dDab][ξThr(3R)]; lactam 4-C)"
  Group label: "FALSE"
- Compound: "CS[C@H]1SC[C@@H]2C(=O)N(C)[C@H](C(C)C)C(=O)OC[C@H](NC(=O)c3cnc4ccccc4n3)C(=O)N[C@H](C)C(=O)N(C)[C@@H]1C(=O)N(C)[C@H](C(C)C)C(=O)OC[C@H](NC(=O)c1cnc3ccccc3n1)C(=O)N[C@H](C)C(=O)N2C"
  Group label: "TRUE"
- Compound: "COC(=O)C=CC(=O)OC"
  Group label: "FALSE"
- Compound: "N#Cc1cc(NC(=O)Nc2nnc(-c3ccncc3)s2)ccc1-c1cn[nH]c1"
  Group label: "FALSE"
- Compound: "CC(=O)O[C@@]12CO[C@H]1C[C@H](O)[C@@]1(C)C(=O)[C@H](O)C3=C(C)[C@@H](OC(=O)C(O)[C@@H](NC(=O)OC(C)(C)C)c4ccccc4)C[C@@](O)([C@@H](OC(=O)c4ccccc4)[C@@H]21)C3(C)C (stereo partly drawn)"
  Group label: "FALSE"
- Compound: "CCC[C@H]1C[C@H](C(=O)N[C@@H]([C@@H]2O[C@@H](SC)[C@@H](O)[C@@H](O)[C@@H]2O)[C@H](C)Cl)N(C)C1"
  Group label: "FALSE"
- Compound: "CCCCOc1ccc(C(=O)Nc2ccc(F)cc2F)cc1"
  Group label: "FALSE"
- Compound: "CCCNC(=O)[C@H]1O[C@H]1C(=O)N[C@H](C(=O)N1CCC[C@@H]1C(=O)OC)C(C)CC (stereo partly drawn)"
  Group label: "TRUE"
- Compound: "CCOC(=O)[C@H](CCc1ccccc1)N[C@@H](C)C(=O)N1[C@@H](C(=O)O)C[C@H]2CCC[C@@H]21"
  Group label: "TRUE"

Q: Status in this test for C[C@](Cc1c[nH]c2ccccc12)(NC(=O)OC1C2CC3CC(C2)CC1C3)C(=O)NC[C@H](NC(=O)CCC(=O)O)c1ccccc1 (stereo partly drawn) ?
A: FALSE

Q: Likewise for CC(C)OC(=O)[C@H](C)N[P@](=O)(OC[C@H]1O[C@@H](n2ccc(=O)[nH]c2=O)[C@](C)(F)[C@H]1O)Oc1ccccc1 ?
A: FALSE

Q: Likewise for N=c1ccn2c(n1)O[C@H]1[C@@H](O)[C@@H](CO)O[C@H]12 ?
A: FALSE
